test: self-splicing fitness, log relative to wild type (ln ratio); higher = more splicing; Tetrahymena group I intron in knt gene, E. coli kanamycin selection, DiMSum; sequences stand for … in CUCUCU…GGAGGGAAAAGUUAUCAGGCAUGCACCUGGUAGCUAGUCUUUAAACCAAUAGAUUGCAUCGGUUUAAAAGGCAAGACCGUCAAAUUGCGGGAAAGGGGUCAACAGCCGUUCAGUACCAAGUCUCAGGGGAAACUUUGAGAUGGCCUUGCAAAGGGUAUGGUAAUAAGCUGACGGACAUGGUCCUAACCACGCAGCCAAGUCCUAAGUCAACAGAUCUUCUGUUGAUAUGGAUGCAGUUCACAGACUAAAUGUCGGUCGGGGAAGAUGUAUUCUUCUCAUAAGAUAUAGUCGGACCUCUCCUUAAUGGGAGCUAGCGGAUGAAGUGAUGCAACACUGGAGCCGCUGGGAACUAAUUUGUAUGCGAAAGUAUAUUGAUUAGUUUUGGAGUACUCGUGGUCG; conditions: 37 °C;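 note: selection with 25 µg/mL kanamycin versus none on LB agar overnight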
Give self-splicing fitness (ln) for every item shown.

Guide cases for self-splicing fitness (ln), answers given:
| residue-string | data-value |
| --- | --- |
| UGCCAGCAAUAUUACGGACA | -0.394 |
| ACUCAGCAAUAUUACGAUCA | -0.359 |
| AUUCAGCAAUAUUACGGCGC | -0.346 |
| UUUCAGCAAUAUUACGUUUG | -1.12 |
| CAGCAGCAAUAUUACGGUUU | -0.225 |
| CCUCAGCAAUAUUACGCAGU | -1.67 |
| AGAUAGCAAUAUUACGAAAU | -0.838 |
| GUGAAGCAAUAUUACGAGCC | -2.76 |

Please supply self-splicing fitness (ln) for each of the following items, keeping them in order.
1. UCGCAGCAAUAUUACGUCCC
2. GAGUAGCAAUAUUACGACGA
3. AGGCAGCAAUAUUACGGCAG
4. UCGCAGCAAUAUUACGGUGG
5. GGCCAGCAAUAUUACGUUGC
6. UGUUAGCAAUAUUACGUGUC
7. AAGCAGCAAUAUUACGUUUG
8. UGCUAGCAAUAUUACGUGUU

A)
1. -2.97
2. -0.664
3. -0.578
4. -2.85
5. -0.74
6. -1.48
7. -1.73
8. -2.21

Please supply self-splicing fitness (ln) for each of the following items, keeping them in order.
1. GGGAAGCAAUAUUACGCAAA
2. AACAAGCAAUAUUACGGCCC

A)
1. -2
2. -0.0486

Please supply self-splicing fitness (ln) for each of the following items, keeping them in order.
1. UGCGAGCAAUAUUACGGGCA
2. AUUUAGCAAUAUUACGCAUU
3. AUGGAGCAAUAUUACGUGAU
4. GCCGAGCAAUAUUACGCUUC
5. AAUCAGCAAUAUUACGGUCC
6. CCCAAGCAAUAUUACGCUUC
7. AUUCAGCAAUAUUACGCAUU
8. AUAUAGCAAUAUUACGGGUU

A)
-1.31
-0.617
-0.769
-1.65
-0.118
-3.15
-0.427
-2.51

Please supply self-splicing fitness (ln) for each of the following items, keeping them in order.
1. AACAAGCAAUAUUACGGACU
2. AGAAAGCAAUAUUACGUGCG

A)
0.775
-0.684
